src = patent US10611750B2

# measurement target: BRD4 Bromodomain 2 (BRD4 BD2) (Homo sapiens, UniProt O60885)
# Construct: 333-460 were cloned, expressed, and purified to homogeneity
# assay summary: AlphaScreen binding assay, BRD4 BD2
# reported conditions: His-tagged BRD4 BD2 100 nM, biotinylated H4 (1-21) K5/8/12/16 tetra-acetylated peptide 100 nM, compounds listed under IC50 range headings
Attribute: IC50
recorded metric: IC50

compound=CC(=O)N1c2ccc(-c3cnn(C4CC4)c3)c(Oc3ccc(C(N)=O)cc3)c2CC[C@@H]1C observed_value="50 to 500 nM"
compound=COC(=O)N1c2ccc(-c3cnn(C4CCNCC4)c3)c(Oc3ccc(C(N)=O)cc3)c2CC[C@@H]1C observed_value="< 50 nM"
compound=COC(=O)N1c2ccc(-c3cnn(CCS(C)(=O)=O)c3)c(Oc3ncc(C(F)(F)F)cn3)c2CC[C@@H]1C observed_value="50 to 500 nM"
compound=COC(=O)N1c2ccc(-c3cnn(C4CC4)c3)c(OCC(C)(F)F)c2CC[C@@H]1C observed_value="≥ 500 nM"
compound=COC(=O)N1c2ccc(-c3cnn(CC(C)(C)O)c3)c(OCC3CCCC3)c2CC[C@@H]1C observed_value="50 to 500 nM"
compound=COC(=O)N1c2ccc(-c3cnn(CC(C)(C)O)c3)c(Oc3ncccc3C#N)c2CC[C@@H]1C observed_value="50 to 500 nM"
compound=CCCOc1c(-c2ccc(S(C)(=O)=O)cn2)ccc2c1CC[C@H](C)N2C(C)=O observed_value="50 to 500 nM"
compound="CC(=O)N1c2ccc(-c3cnn(C4CC4)c3)c(Oc3ccccc3)c2CCC1C (centres unmarked)" observed_value="50 to 500 nM"

====

# measurement target: BRD4 Bromodomain 1 (BRD4 BD1) (Homo sapiens, UniProt O60885)
# Construct: 44-168 and BRD4 BD2
# assay summary: AlphaScreen binding assay, BRD4 BD1
# reported conditions: His-tagged BRD4 BD1 50 nM, biotinylated H4 (1-21) K5/8/12/16 tetra-acetylated peptide 50 nM, compounds listed under IC50 range headings
pIC50: −log10 of the molar value.
Attribute: pIC50
recorded metric: pIC50

chem_smiles=CC(=O)N1c2ccc(-c3ccc(C(=O)N4CCOCC4)cc3)c(OCC(=O)N(C)C)c2CC[C@@H]1C measurement_target="BRD4 Bromodomain 1 (BRD4 BD1) (Homo sapiens, UniProt O60885)" observed_value="5.00 to 6.00"
chem_smiles=C[C@H]1CCc2c(ccc(-c3cn(C)cn3)c2OC2CCC2)N1C(=O)C1CC1 measurement_target="BRD4 Bromodomain 1 (BRD4 BD1) (Homo sapiens, UniProt O60885)" observed_value="6.00 to 7.00"
chem_smiles=CC(=O)N1c2ccc(-c3cnn(CCO)c3)c(Oc3ncccn3)c2CC[C@@H]1C measurement_target="BRD4 Bromodomain 1 (BRD4 BD1) (Homo sapiens, UniProt O60885)" observed_value="6.00 to 7.00"
chem_smiles=CC(=O)N1c2cccc(OCC(=O)N(C)C)c2CC[C@@H]1C measurement_target="BRD4 Bromodomain 1 (BRD4 BD1) (Homo sapiens, UniProt O60885)" observed_value="≤ 5.00"
chem_smiles=CCN1CC(Oc2c(-c3cnn(C4CC4)c3)ccc3c2CC[C@H](C)N3C(=O)OC)C1 measurement_target="BRD4 Bromodomain 1 (BRD4 BD1) (Homo sapiens, UniProt O60885)" observed_value="5.00 to 6.00"
chem_smiles=COC(=O)N1c2ccc(-c3cnn(C4CCNCC4)c3)c(OCC3CCOCC3)c2CC[C@@H]1C measurement_target="BRD4 Bromodomain 1 (BRD4 BD1) (Homo sapiens, UniProt O60885)" observed_value="5.00 to 6.00"
chem_smiles=CCCOc1c(-c2cnn(C3CNC3)c2)ccc2c1CC[C@H](C)N2C(=O)C1CC1 measurement_target="BRD4 Bromodomain 1 (BRD4 BD1) (Homo sapiens, UniProt O60885)" observed_value="6.00 to 7.00"
chem_smiles=C[C@H]1CCc2c(Oc3ccccc3)c(-c3cn(C)nn3)cc(F)c2N1C(=O)C1CC1 measurement_target="BRD4 Bromodomain 1 (BRD4 BD1) (Homo sapiens, UniProt O60885)" observed_value="6.00 to 7.00"
chem_smiles=CC(=O)N1c2ccc(-c3cnn(C4CC4)c3)c(OCC3CCCC3)c2CC[C@@H]1C measurement_target="BRD4 Bromodomain 1 (BRD4 BD1) (Homo sapiens, UniProt O60885)" observed_value="> 7.00"
chem_smiles=COC(=O)N1c2ccc(-c3cnn(C4CNC4)c3)c(Oc3ccccc3)c2CC[C@@H]1C measurement_target="BRD4 Bromodomain 1 (BRD4 BD1) (Homo sapiens, UniProt O60885)" observed_value="6.00 to 7.00"
chem_smiles=COC(=O)N1c2ccc(-c3csc(C4(OC)CNC4)n3)c(OC3CCC3)c2CC[C@@H]1C measurement_target="BRD4 Bromodomain 1 (BRD4 BD1) (Homo sapiens, UniProt O60885)" observed_value="5.00 to 6.00"
chem_smiles=CC(=O)N1c2ccc(-c3cnn(C4CC4)c3)c(Oc3cccc(C)n3)c2CC[C@@H]1C measurement_target="BRD4 Bromodomain 1 (BRD4 BD1) (Homo sapiens, UniProt O60885)" observed_value="6.00 to 7.00"
chem_smiles=COC(=O)N1c2ccc(-c3cn(C)nn3)c(Oc3ccccc3)c2CC[C@@H]1C measurement_target="BRD4 Bromodomain 1 (BRD4 BD1) (Homo sapiens, UniProt O60885)" observed_value="6.00 to 7.00"
chem_smiles=CC(=O)N1c2ccc(-c3cnn(C4CC4)c3)c(Oc3ccccc3Cl)c2CC[C@@H]1C measurement_target="BRD4 Bromodomain 1 (BRD4 BD1) (Homo sapiens, UniProt O60885)" observed_value="6.00 to 7.00"
chem_smiles=COC(=O)N1c2ccc(-c3cnn(C4CCNCC4)c3)c(Oc3ncccn3)c2CC[C@@H]1C measurement_target="BRD4 Bromodomain 1 (BRD4 BD1) (Homo sapiens, UniProt O60885)" observed_value="5.00 to 6.00"
chem_smiles=CC(=O)N1c2ccc(-c3ccc4c(c3)CCN4S(C)(=O)=O)c(OCC(=O)N(C)C)c2CC[C@@H]1C measurement_target="BRD4 Bromodomain 1 (BRD4 BD1) (Homo sapiens, UniProt O60885)" observed_value="5.00 to 6.00"
chem_smiles=COC(=O)N1c2ccc(-c3cnn(CC(C)(C)O)c3)c(Oc3ccc(C(F)(F)F)cn3)c2CC[C@@H]1C measurement_target="BRD4 Bromodomain 1 (BRD4 BD1) (Homo sapiens, UniProt O60885)" observed_value="5.00 to 6.00"
